# target: Acetylcholine receptor (Torpedo californica, UniProt P02710+P02712+P02714+P02718)
# Sequence (P02710 whole entry): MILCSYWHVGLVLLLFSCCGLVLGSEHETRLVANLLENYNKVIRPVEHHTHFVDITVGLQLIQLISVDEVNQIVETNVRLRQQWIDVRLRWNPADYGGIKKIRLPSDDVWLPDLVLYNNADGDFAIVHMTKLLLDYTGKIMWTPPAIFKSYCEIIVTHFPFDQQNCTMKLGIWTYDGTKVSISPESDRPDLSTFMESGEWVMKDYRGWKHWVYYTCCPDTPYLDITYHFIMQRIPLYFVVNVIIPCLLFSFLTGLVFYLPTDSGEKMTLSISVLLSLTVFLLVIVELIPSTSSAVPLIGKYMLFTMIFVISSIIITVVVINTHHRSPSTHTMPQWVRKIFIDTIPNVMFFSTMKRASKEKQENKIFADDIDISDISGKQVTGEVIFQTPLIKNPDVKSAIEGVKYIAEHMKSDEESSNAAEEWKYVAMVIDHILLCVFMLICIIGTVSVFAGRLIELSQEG
# Sequence (P02712 whole entry): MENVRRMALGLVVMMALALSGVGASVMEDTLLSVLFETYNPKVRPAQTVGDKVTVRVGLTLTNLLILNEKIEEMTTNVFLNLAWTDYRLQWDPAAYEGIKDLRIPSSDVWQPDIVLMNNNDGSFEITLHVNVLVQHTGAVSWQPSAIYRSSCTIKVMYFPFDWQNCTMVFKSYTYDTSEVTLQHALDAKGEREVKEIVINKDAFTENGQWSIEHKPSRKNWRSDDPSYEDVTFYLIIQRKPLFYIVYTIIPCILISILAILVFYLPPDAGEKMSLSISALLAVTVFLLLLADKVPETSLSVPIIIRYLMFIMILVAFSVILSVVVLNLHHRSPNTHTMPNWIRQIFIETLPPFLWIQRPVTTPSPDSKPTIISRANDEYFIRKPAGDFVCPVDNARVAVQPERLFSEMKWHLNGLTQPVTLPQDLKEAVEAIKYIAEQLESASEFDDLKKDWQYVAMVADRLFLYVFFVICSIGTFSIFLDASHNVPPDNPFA
# Sequence (P02718 whole entry): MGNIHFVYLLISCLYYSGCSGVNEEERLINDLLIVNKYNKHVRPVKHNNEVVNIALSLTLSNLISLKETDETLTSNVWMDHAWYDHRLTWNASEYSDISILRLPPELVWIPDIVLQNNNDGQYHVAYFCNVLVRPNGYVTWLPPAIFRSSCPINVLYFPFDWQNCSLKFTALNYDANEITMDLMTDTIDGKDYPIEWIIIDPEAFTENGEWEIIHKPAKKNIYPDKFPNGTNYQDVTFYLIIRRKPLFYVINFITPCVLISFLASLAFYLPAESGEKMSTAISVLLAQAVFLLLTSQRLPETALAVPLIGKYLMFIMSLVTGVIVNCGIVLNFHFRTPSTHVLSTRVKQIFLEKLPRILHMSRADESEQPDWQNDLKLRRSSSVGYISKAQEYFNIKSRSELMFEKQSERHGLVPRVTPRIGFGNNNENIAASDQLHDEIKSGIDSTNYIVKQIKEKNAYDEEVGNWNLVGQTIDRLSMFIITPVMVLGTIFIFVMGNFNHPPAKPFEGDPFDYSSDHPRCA
# Sequence (P02714 whole entry): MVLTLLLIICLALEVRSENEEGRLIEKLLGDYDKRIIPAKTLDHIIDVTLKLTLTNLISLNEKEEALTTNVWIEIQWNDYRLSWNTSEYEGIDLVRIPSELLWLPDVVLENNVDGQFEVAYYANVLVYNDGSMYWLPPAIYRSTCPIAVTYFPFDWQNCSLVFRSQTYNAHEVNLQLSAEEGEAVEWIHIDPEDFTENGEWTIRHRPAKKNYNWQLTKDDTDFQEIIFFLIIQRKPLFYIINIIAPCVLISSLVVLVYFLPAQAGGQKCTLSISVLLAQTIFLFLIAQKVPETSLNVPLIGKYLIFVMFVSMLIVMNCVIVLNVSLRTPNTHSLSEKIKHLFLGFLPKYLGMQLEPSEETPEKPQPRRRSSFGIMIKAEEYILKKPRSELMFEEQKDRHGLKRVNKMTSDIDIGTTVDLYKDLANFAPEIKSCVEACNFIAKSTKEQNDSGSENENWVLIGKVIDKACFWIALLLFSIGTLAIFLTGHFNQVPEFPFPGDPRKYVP
# assay details: Binding potency for nAChR subtype Alpha-1-beta-1-delta gamma(torpedo)
# Assay type: protein-complex assay
attribute measured: Ki

• Cc1cc([C@@H]2CCCN2C)on1 = > 10 µM

###

# Species on record: Rattus norvegicus
# assay details: compound was evaluated for functional potencies and efficacies at rat nAChR subtype DA release
# Format: organism-based
attribute measured: EC50 (nM)

• c1cncc(OC[C@@H]2CCN2)c1 = 3

###

# target: Acetylcholine receptor (Torpedo californica, UniProt P02710+P02712+P02714+P02718)
pEC50: −log10 of the molar value.
attribute measured: pEC50

* CN1CCC[C@H]1c1cccnc1 | 4.22

###

# target: Neuronal acetylcholine receptor subunit alpha-7 (Homo sapiens, UniProt P36544)
# assay details: Ability to block activation of acetylcholine-stimulated currents in human alpha-7 homomers expressed in oocytes
pIC50: −log10 of the molar value.
attribute measured: pIC50

* CNC1(C)C2CCC(C2)C1(C)C (stereo unspecified) | 5.74

###

# target: Neuronal acetylcholine receptor; alpha4/beta2 (Rattus norvegicus, UniProt P09483+P12390)
# Sequence (P09483 whole entry): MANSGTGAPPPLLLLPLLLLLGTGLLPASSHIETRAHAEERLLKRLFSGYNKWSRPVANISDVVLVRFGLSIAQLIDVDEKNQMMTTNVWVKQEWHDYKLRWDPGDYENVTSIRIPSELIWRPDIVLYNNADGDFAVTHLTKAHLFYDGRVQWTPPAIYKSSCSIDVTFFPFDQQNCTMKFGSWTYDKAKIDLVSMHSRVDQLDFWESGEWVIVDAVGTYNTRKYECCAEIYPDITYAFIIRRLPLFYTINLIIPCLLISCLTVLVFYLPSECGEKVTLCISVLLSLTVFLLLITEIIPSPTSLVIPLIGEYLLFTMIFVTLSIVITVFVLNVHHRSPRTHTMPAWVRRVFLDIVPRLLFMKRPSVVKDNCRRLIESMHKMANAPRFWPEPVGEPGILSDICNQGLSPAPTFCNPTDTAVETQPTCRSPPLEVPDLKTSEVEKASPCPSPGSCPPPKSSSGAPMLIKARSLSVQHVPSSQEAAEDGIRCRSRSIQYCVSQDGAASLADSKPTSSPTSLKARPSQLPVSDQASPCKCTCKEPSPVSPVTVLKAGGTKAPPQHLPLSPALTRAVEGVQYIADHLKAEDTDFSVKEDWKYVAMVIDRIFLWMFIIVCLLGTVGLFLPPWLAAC
# Sequence (P12390 whole entry): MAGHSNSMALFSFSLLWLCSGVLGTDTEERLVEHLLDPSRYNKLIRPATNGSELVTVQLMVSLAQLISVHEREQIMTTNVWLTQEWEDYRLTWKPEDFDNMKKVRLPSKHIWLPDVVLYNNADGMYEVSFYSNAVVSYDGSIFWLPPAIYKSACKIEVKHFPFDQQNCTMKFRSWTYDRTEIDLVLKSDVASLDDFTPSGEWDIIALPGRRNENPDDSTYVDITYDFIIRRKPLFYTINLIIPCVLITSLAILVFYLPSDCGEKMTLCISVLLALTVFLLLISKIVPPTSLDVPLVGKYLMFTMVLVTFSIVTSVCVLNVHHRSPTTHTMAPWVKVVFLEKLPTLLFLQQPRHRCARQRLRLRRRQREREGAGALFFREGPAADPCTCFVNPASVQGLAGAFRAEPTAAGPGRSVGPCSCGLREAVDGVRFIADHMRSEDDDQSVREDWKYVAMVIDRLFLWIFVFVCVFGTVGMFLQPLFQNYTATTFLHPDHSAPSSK
# assay details: Compound was evaluated for functional potencies and efficacies at rat Nicotinic acetylcholine receptor alpha4-beta2
# Format: protein-complex assay
attribute measured: EC50 (µM)

- Cc1cc([C@@H]2CCCN2C)on1 [ABT-418]: 6
- CO[C@@H]1CC=C2CCN3CCC4=C(CC(=O)OC4)[C@@]23C1: 0.37

###

# target: Neuronal acetylcholine receptor subunit alpha-7 (Homo sapiens)
# assay details: Affinity for Nicotinic acetylcholine receptor alpha7
attribute measured: Ki

- Cc1ncccc1OC[C@@H]1CCCN1 [POZANICLINE]: > 10 µM

###

Each record here notes measured pEC50.
# target: Neuronal acetylcholine receptor; alpha4/beta2 (Rattus norvegicus, UniProt P09483+P12390)
# assay details: Functional potency for Nicotinic acetylcholine receptor alpha4-beta2 (rat brain)
pEC50: −log10 of the molar value.
attribute measured: pEC50

- Cc1cc([C@@H]2CCCN2C)on1: 5.00
- CO[C@@H]1CC=C2CCN3CCC4=C(CC(=O)OC4)[C@@]23C1: 6.15

###

# target: Neuronal acetylcholine receptor subunit alpha-7 (Rattus norvegicus)
# Sequence (Q05941 whole entry): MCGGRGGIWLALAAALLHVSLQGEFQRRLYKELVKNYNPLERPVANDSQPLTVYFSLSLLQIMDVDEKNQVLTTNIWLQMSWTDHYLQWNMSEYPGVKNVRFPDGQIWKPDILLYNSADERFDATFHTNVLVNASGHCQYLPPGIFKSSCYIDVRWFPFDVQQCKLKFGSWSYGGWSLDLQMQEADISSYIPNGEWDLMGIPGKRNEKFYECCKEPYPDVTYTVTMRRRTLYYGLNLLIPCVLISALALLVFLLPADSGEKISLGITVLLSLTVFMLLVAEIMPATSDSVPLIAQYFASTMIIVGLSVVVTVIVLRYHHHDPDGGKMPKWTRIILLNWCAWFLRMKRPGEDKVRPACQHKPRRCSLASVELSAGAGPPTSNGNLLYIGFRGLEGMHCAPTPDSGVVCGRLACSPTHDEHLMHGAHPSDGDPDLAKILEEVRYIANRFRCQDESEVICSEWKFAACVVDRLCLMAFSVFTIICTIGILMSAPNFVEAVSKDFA
# assay details: Affinity for Nicotinic acetylcholine receptor alpha7
pKi: −log10 of the molar value.
attribute measured: pKi

- CNCC/C=C/c1cccnc1: 4.44

###

# target: Acetylcholine receptor (Torpedo californica, UniProt P02710+P02712+P02714+P02718)
# assay details: Functional potency for nAChR subtype Alpha1-beta1 delta gamma (torpedo)
# Assay type: protein-complex assay
pEC50: −log10 of the molar value.
attribute measured: pEC50

• Cc1cc([C@@H]2CCCN2C)on1 [ABT-418] = 3.39

###

# target: Neuronal acetylcholine receptor
# assay details: Compound was evaluated for functional potencies and efficacies at rat Nicotinic acetylcholine receptor subtype PC12 (ganglionic)
# Assay type: cell-based
# condition notes: pc-12
attribute measured: EC50 (µM)

- O=c1cccc2n1C[C@@H]1CNC[C@H]2C1 [CYTISINICLINE]: 10

###

# target: Neuronal acetylcholine receptor subunit alpha-7 (Homo sapiens, UniProt P36544)
# assay details: Compound was evaluated for functional potencies and efficacies at human Nicotinic acetylcholine receptor alpha7
pEC50: −log10 of the molar value.
attribute measured: pEC50

• C[N+]1(C)CCN(c2ccccc2)CC1 [DIMETHYLPHENYLPIPERAZINIUM] = 4.02
• Cc1cc([C@@H]2CCCN2C)on1 [ABT-418] = 3.58
• c1cncc(OC[C@@H]2CCN2)c1 = 5.05
• O=c1cccc2n1C[C@@H]1CNC[C@H]2C1 [CYTISINICLINE] = 4.15
• Clc1ccc(C2CC3CCC2N3)cn1 (racemic) [EPIBATIDINE] = 5.46
• CO[C@@H]1CC=C2CCN3CCC4=C(CC(=O)OC4)[C@@]23C1 = 4.71

###

pEC50 overview
# target: Neuronal acetylcholine receptor; alpha3/beta4 (Homo sapiens, UniProt P30926+P32297)
# Sequence (P30926 whole entry): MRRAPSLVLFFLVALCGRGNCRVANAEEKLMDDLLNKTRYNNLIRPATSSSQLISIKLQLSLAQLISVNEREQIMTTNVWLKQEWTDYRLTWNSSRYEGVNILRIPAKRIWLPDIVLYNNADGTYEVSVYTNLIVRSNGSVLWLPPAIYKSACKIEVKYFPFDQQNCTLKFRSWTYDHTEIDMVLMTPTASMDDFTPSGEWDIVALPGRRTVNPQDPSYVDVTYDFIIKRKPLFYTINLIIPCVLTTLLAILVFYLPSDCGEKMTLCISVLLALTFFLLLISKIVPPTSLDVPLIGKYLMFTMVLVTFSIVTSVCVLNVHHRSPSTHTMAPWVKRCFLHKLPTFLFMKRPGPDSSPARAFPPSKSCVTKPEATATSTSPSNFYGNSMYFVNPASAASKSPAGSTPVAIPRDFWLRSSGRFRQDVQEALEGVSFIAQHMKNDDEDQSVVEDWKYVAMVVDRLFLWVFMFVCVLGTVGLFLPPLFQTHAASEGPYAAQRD
# Sequence (P32297 whole entry): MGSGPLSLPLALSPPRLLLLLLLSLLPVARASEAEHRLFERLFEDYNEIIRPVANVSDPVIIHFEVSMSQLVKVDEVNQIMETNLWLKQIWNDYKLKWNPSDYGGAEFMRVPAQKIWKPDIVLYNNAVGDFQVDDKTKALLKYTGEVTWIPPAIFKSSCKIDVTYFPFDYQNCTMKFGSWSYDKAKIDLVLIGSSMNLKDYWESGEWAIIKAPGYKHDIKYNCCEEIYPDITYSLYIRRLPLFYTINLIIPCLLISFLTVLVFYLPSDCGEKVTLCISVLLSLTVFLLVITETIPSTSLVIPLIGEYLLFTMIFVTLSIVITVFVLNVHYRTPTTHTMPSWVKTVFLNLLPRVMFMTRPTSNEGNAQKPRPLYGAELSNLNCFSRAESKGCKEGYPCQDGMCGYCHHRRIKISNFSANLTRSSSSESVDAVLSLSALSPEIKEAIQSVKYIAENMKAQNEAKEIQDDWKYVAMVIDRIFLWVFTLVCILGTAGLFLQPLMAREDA
# assay details: Compound was evaluated for functional potencies and efficacies at human Nicotinic acetylcholine receptor subtype IMR-32 (ganglionic)
# Format: protein-complex assay
# condition notes: read-out: EC50
pEC50: −log10 of the molar value.
attribute measured: pEC50

- c1cncc(OC[C@@H]2CCN2)c1: 6.15
- CNCC/C=C/c1cccnc1: 4.34
- Cc1cc([C@@H]2CCCN2C)on1: 4.19
- O=c1cccc2n1C[C@@H]1CNC[C@H]2C1: 4.59

###

Recorded measurements of Ki, one per entry
# target: Neuronal acetylcholine receptor; alpha4/beta2 (Rattus norvegicus, UniProt P09483+P12390)
# assay details: Binding potency for Nicotinic acetylcholine receptor alpha4-beta2 (rat brain)
attribute measured: Ki (nM)

• CO[C@@H]1CC=C2CCN3CCC4=C(CC(=O)OC4)[C@@]23C1 = 0.04
• Cc1cc([C@@H]2CCCN2C)on1 = 7.89
